# test: Mouse PK test: plasma concentration after intravenous or oral administration
# Assay type: in vivo, mice (C57BL/6J)
# measurementConditions: male, C57BL/6J, in vivo, iv, 1 mg/kg
Starred links: 1 amine or outer side, 2 acyl side, 3 side chain; linkers in the order of their positions; H or OH if unused. Non-standard residues stand in square brackets, D forms with d. Residues, ends and D or L forms follow the SMILES beside them. *: point of attachment. NMedβ3hAla = C[C@H](CC(=O)[*:2])N(C)[*:1]; NMeF = CN[C@@H](Cc1ccccc1)C(=O)O; NMeI = CC[C@H](C)[C@H](NC)C(=O)O; NMeβAla = CN(CCC(=O)[*:2])[*:1]; NMeL = CN[C@@H](CC(C)C)C(=O)O; Sar = CNCC(=O)O; tBu = CC(C)(C)*
measuredParameter: AUC(0-inf) (ng·h/mL)
Enter your answer as a number in ng·h/mL; do not include the unit.

Query: Which value of AUC(0-inf) has been reported for CC[C@H](C)[C@H]1C(=O)N[C@@H](CC(C)C)C(=O)N(C)CC(=O)N(C)[C@@H](CC(C)C)C(=O)N[C@@H](CC(C)C)C(=O)N(C)[C@H](C)CC(=O)N(C)[C@@H](CC(C)C)C(=O)N(C)CCC(=O)N(C)[C@@H](CC(C)C)C(=O)N[C@@H](COC(C)(C)C)C(=O)N(C)[C@@H](Cc2ccccc2)C(=O)N(C)CCC(=O)N(C)[C@@H](Cc2ccccc2)C(=O)N1C [pd144] (cyclo(L[Sar][NMeL]L[NMedβ3hAla][NMeL][NMeβAla][NMeL]S(tBu)[NMeF][NMeβAla][NMeF][NMeI])) in the records?
Response: 3500

The measurements presented in this section are drawn from patent EP4768499A1.
